The measured values listed here are drawn from patent US20240279345A1.

Biological target: T1, recombinant mouse α5β1 (rm-α5β1) (Mus musculus, UniProt P09055+P11688)
T1 construct: purchased R&D Systems 7728-A5
T1 sequence (P11688 45-898 limits assumed): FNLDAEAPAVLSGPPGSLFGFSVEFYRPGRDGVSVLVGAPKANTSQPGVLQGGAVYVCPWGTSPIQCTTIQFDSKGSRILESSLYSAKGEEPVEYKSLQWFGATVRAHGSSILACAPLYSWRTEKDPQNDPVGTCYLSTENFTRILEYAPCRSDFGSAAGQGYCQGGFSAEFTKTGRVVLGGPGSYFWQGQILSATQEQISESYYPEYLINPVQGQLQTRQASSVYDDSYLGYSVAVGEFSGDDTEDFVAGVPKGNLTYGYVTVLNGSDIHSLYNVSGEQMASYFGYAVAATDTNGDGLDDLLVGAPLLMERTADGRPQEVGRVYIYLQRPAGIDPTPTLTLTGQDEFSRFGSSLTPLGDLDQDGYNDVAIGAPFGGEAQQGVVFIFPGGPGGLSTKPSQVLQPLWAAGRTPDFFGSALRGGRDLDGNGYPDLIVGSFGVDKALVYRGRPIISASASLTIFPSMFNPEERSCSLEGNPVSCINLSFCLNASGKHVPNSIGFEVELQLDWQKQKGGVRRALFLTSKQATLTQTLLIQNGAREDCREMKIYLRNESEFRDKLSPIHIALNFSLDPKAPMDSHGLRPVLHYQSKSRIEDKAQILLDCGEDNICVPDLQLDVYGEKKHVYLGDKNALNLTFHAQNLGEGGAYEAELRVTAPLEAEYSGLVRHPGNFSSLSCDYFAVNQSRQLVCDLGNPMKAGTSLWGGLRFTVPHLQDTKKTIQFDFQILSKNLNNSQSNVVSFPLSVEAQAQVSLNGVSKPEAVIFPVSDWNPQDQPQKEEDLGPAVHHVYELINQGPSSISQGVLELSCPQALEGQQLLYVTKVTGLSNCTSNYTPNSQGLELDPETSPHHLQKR
T1 sequence (P11688 899-999 limits assumed): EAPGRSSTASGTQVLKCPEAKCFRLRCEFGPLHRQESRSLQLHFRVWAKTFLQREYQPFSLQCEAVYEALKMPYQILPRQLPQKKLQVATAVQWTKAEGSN
T1 sequence (P09055 21-728 limits assumed): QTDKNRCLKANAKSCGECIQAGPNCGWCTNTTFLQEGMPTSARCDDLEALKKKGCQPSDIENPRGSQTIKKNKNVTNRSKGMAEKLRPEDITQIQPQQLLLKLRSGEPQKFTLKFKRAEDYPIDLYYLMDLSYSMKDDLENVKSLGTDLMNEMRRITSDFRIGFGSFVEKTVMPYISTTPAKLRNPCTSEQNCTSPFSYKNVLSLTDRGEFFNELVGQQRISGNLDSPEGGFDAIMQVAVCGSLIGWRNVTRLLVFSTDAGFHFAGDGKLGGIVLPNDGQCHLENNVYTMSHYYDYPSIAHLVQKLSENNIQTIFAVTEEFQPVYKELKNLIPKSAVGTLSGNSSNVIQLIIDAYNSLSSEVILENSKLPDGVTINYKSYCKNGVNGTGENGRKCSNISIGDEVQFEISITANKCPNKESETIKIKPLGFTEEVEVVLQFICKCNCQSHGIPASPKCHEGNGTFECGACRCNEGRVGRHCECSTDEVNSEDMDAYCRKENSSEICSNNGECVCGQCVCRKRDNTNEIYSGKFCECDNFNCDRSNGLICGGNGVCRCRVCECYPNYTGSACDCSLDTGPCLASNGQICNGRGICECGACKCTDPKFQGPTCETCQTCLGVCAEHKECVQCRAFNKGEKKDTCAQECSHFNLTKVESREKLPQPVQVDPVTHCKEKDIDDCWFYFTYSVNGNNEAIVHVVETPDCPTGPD
Assay: Plate-based ELISA cross-reactivity to rm-α5β1
Type: binding
Settings: hybridoma supernatant diluted 1:10; plate coated with rm-α5β1
quantity measured: Absorbance 450 nm Mouse α5β1

* A-3A08: hybridoma clone positive on K562 cells (antibody, V domains shown) VH: QVQLKESGPGLVAPSQSLSITCTISGFSLTTYGVHWVRQPPGKGLEWLVVIWSDGSTTYNSALKSRLNITKDNSKSQVFLKMNSLQTDDTAMYYCVRHGGLLRRDAMDYWGQGTSVTVSS VL: QIVLTQSPAIMSASLGERVTMTCTASSSVSSNSFHWYQQKPGSSPKLWLYSTSNLASGVPARFSGSGSGTSYSLTISSMEAEDAATYYCHQYLRSPPTFGGGTKLEIK | 0.6708
* A2-3B06: anti-α5β1 antibody, VH SEQ ID NO:42, VL SEQ ID NO:43 (antibody, V domains shown, A2-3B06 VH Sequence; A2-3B06 VL Sequence) VH: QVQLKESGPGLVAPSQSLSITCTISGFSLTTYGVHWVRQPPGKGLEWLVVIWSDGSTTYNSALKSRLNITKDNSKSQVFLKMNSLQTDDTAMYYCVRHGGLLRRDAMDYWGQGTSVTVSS VL: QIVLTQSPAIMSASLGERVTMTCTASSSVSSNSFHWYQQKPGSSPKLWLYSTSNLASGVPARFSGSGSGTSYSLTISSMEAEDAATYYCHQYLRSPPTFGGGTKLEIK | 0.049
